# Tested on: MeV
# CONDITION DETAILS: 2 h
Where a SMILES comes first, the peptide text is derived from it. [ ]: non-standard residue; d: D form. The star is where a group is joined. Pentadecanoyl = CCCCCCCCCCCCCCC(=O)*; Undecanoyl = CCCCCCCCCCC(=O)*; dNle = CCCC[C@@H](N)C(=O)O; Nle = CCCC[C@H](N)C(=O)O
METRIC NAME: IC90

Below are worked cases with known answers.
CCCCCCCCCCCCCCC(=O)N[C@@H](Cc1ccccc1)C(=O)N[C@H](C(=O)N1CCC[C@H]1C(=O)N[C@@H](Cc1c[nH]c2ccccc12)C(=O)N[C@@H](Cc1ccccc1)C(=O)N[C@@H](CO)C(=O)N[C@@H](CCCCN)C(=O)N[C@@H](Cc1ccccc1)C(=O)N[C@H](CC(C)C)C(=O)N[C@@H](CCCC)C(=O)N[C@@H](CCCNC(=N)N)C(=O)N[C@H](C(=O)N[C@@H](CC(C)C)C(N)=O)[C@@H](C)CC)C(C)C [TL6.7] (Pentadecanoyl-FVPWFSKF[dL][Nle]RIL-NH2) :: > 50 µM
CCCC[C@@H](NC(=O)[C@@H](CC(C)C)NC(=O)[C@H](Cc1ccccc1)NC(=O)[C@H](CCCCN)NC(=O)[C@H](CO)NC(=O)[C@H](Cc1ccccc1)NC(=O)[C@H](Cc1c[nH]c2ccccc12)NC(=O)[C@@H]1CCCN1C(=O)[C@@H](NC(=O)[C@@H](N)Cc1ccccc1)C(C)C)C(=O)N[C@@H](CCCNC(=N)N)C(=O)N[C@H](C(=O)N[C@@H](CC(C)C)C(N)=O)[C@@H](C)CC [TL7] (H-FVPWFSKF[dL][dNle]RIL-NH2) :: > 50 µM

Shifting focus to the compound that follows.
IN: # assay system MeV: give IC90 of CCCCCCCCCCC(=O)N[C@@H](Cc1ccccc1)C(=O)N[C@H](C(=O)N1CCC[C@H]1C(=O)N[C@@H](Cc1c[nH]c2ccccc12)C(=O)N[C@@H](Cc1ccccc1)C(=O)N[C@@H](CO)C(=O)N[C@@H](CCCCN)C(=O)N[C@@H](Cc1ccccc1)C(=O)N[C@H](CC(C)C)C(=O)N[C@@H](CCCC)C(=O)N[C@@H](CCCNC(=N)N)C(=O)N[C@H](C(=O)N[C@@H](CC(C)C)C(N)=O)[C@@H](C)CC)C(C)C [TL6.5] (Undecanoyl-FVPWFSKF[dL][Nle]RIL-NH2)
OUT: 29.2 µM
